- TEST SYSTEM: UniProt P97438
- Sequence (P97438 1-411 isoform P97438-2): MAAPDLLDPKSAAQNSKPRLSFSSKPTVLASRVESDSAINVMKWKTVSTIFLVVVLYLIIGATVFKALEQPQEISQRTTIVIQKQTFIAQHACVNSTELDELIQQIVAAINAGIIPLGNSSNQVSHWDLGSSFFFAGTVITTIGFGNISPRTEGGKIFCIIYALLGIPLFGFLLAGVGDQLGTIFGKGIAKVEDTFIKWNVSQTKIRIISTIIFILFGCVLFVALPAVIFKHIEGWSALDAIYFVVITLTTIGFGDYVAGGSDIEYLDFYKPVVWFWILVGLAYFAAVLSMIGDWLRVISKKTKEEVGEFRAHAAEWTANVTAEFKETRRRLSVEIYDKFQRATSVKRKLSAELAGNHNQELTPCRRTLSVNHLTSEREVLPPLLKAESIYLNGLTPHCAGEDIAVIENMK
- ASSAY NOTES: Two electrode voltage clamp in Xenopus oocytes, K2P2.1
- Assay type: cell-based
pEC50: −log10 of the molar value.

STRUCTURE STRING: CS(=O)(=O)Nc1ccc(C(=O)NCc2ccc(Cl)cc2Cl)cc1
pEC50: 4.84
--
STRUCTURE STRING: Cc1cc(Cl)ccc1OCCNC(=O)c1cccs1
pEC50: 4.86
